tested on: esterase; experiment: Esterase-catalysed conversion of 1-t to 3 (analytical HPLC); format: biochemical, porcine; conditions: pig, esterase from porcine liver, pH 7.4; 1-t 1.0 wt %, esterase 1 U/ml, 24 hours; read-out: 1-t converted to 3 (HPLC)
parameter.measured: metabolised at 24 h, 1 wt %

• O=C(CCC(=O)OCCNC(=O)[C@@H](Cc1ccccc1)NC(=O)[C@@H](Cc1ccccc1)NC(=O)CCNc1ccc([N+](=O)[O-])c2nonc12)NCCS(=O)(=O)O = ~11%

---

assay: in vitro; settings: human
parameter.measured: viability at 3 day, 37 μg/mL

• O=C(CCC(=O)OCCNC(=O)[C@@H](Cc1ccccc1)NC(=O)[C@@H](Cc1ccccc1)NC(=O)Cc1ccc2ccccc2c1)NCCS(=O)(=O)O [D-10] = ~80%

---

experiment: in vitro; conditions: human
parameter.measured: viability at 3 day, 73 μg/mL

• O=C(CCC(=O)OCCNC(=O)[C@H](Cc1ccccc1)NC(=O)[C@H](Cc1ccccc1)NC(=O)Cc1ccc2ccccc2c1)NCCS(=O)(=O)O [L-10] = ~80%
